experimental-system: BCLXL (Homo sapiens, UniProt Q07817, V10N/V9A)
Sequence (Q07817 with tags, fused parts or gaps V9A/V10N): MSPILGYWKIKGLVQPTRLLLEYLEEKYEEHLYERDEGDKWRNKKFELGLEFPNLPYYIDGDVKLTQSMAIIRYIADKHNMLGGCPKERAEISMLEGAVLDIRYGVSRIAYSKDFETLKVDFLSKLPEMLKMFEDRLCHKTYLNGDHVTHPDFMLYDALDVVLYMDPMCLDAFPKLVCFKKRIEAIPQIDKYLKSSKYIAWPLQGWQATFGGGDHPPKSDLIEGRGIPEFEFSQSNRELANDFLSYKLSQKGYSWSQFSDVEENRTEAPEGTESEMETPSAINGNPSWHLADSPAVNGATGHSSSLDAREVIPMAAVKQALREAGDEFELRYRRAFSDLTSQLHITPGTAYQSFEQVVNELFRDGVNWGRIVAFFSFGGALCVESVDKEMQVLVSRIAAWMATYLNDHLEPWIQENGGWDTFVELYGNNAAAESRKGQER
assay-comment: Fluorescence polarisation assay (PUMA-based probe displacement); further: 20 nM protein, 10 nM fluorescent probe
Response field label: string, one of 1 (Ki strictly below 200 nM) or 0.

Solved entries (count: 7):
{"compound": "Cc1cc(N(C)c2nc(C(=O)O)c(C3CCN(C(=O)Cc4ccccc4)CC3)s2)nnc1Nc1nc2ccccc2s1", "label": 0}
{"compound": "Cc1cc(Nc2nc3ccccc3s2)nnc1Nc1nc(C(=O)O)cs1", "label": 0}
{"compound": "Cc1cc(N(C)c2ccc(C(=O)O)s2)nnc1Nc1nc2ccccc2s1", "label": 0}
{"compound": "Cc1cc(N(CCCO)c2nc(C(=O)O)cs2)nnc1Nc1nc2ccccc2s1", "label": 1}
{"compound": "CNCC#Cc1ccc(OCCCc2sc(N(CCCC(O)C[N+](C)(C)C)c3cc(C)c(Nc4nc5ccccc5s4)nn3)nc2C(=O)[O-])c(F)c1 (centres unmarked)", "label": 1}
{"compound": "CN(C)CC#Cc1ccc(OCCCc2sc(N(C)c3cc(C4CC4)c(Nc4nc5ccccc5s4)nn3)nc2C(=O)O)c(F)c1", "label": 1}
{"compound": "CCc1c(Nc2nc3ccccc3s2)nnc(Nc2nc(C(=O)O)cs2)c1C", "label": 1}

# TODO verify Ki < 200 nM strictly for this compound: CC(C)c1cc(Nc2nc3ccccc3s2)nnc1Nc1nc(C(=O)O)cs1
0
